Biological target: DNA gyrase (374 kDa Gyr A2B2 subunit from Staphylococcus aureus) (Staphylococcus aureus)
Sequence (P0A0K8 whole entry): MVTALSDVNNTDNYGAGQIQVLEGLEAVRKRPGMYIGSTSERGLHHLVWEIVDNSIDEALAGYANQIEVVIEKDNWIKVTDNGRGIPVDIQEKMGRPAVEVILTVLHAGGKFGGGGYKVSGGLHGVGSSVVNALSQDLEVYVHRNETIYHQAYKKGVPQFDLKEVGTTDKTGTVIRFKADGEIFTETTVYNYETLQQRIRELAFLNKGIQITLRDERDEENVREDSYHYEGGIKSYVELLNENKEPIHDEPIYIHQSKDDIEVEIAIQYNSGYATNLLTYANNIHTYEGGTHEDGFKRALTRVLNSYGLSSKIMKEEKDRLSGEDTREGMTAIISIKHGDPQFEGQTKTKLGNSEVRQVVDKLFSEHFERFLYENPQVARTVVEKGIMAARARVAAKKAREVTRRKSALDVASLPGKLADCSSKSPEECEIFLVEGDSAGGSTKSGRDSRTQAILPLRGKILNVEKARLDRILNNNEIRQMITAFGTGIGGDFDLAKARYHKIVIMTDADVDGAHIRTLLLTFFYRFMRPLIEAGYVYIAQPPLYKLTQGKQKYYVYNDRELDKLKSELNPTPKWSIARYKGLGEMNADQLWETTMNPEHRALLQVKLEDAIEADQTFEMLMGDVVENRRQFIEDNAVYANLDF
Sequence (P20831 whole entry, further chain): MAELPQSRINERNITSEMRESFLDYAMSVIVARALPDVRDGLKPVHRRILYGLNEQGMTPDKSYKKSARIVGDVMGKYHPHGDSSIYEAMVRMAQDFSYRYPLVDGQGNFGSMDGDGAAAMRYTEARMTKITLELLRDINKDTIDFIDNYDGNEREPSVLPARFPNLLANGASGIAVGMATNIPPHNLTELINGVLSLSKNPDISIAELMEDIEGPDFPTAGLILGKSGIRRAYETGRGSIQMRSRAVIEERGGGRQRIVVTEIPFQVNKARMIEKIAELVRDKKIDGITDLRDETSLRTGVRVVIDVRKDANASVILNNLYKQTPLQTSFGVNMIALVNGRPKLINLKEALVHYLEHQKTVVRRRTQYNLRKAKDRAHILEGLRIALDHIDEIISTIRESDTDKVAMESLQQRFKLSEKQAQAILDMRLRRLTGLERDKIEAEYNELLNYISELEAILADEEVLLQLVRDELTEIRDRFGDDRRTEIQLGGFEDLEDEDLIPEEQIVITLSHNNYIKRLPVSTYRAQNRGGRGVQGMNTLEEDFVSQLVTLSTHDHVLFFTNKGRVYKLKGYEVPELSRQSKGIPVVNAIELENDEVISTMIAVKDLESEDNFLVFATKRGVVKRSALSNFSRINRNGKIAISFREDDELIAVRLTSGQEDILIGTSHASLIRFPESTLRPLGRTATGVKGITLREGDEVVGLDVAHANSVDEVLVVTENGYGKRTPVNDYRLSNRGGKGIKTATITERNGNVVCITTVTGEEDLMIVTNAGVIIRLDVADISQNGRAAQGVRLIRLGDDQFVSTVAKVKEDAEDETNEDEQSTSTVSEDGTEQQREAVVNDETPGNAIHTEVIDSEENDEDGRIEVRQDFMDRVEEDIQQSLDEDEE
Assay: Gyrase ATPase Assay
Format: biochemical
Settings: 10 μM concentration; ATPase assay at 30° C., 0.9 mM ATP; average of duplicate values; read-out: Gyrase Inhibitory Activity (percent inhibition)
Reported inhibition at 10 µM by item:

CCNC(=O)Nc1nc2cc(-c3cccc(=O)[nH]3)ccc2[nH]1; > 75%
CCNC(=O)Nc1nc2cc(-c3cccnc3)cc(F)c2[nH]1; > 75%
CCOC(=O)Nc1nc2cc(-c3cnc(N4CCN(S(C)(=O)=O)CC4)nc3)ccc2[nH]1; < 50%
COC(=O)Nc1nc2cc(-c3cnc(NCC(=O)OC(C)(C)C)nc3)ccc2[nH]1; > 75%
CCNC(=O)Nc1nc2cc(-c3cnc(NCCC4CCCN4C)nc3)ccc2[nH]1 (stereo not drawn); > 75%

IN: I am curious: what inhibition at 10 µM value has been reported for CCNC(=O)Nc1nc2cc(-c3cnc(N4CCN(S(C)(=O)=O)CC4)nc3)ccc2[nH]1 ?
OUT: 50 to 75%

IN: I am curious: what inhibition at 10 µM value has been reported for CCNC(=O)Nc1nc2cc(-c3ccc(N4CCOCC4)nc3)ccc2[nH]1 ?
OUT: > 75%

IN: I am curious: what inhibition at 10 µM value has been reported for CCNC(=O)Nc1nc2cc(-c3cncc(C(=O)OCC)c3)ccc2[nH]1 ?
OUT: > 75%

IN: I am curious: what inhibition at 10 µM value has been reported for CCNC(=O)Nc1nc2cc(-c3cnc(OC)nc3OC)ccc2[nH]1 ?
OUT: > 75%
